Origin of values: paper PMC11170759

target: human recombinant α-syn fibrils (Homo sapiens, UniProt P37840); assay: In vitro competition binding assay against [3H]MODAG-001 on α-syn fibrils; details: competition against 1 nM [3H]MODAG-001; α-syn fibrils 50 nM; mean Ki ± SEM
For each of the compounds below, state its log10 Ki.
For clarity, the numbers are log10 values of Ki expressed in nM.

QUERY: Please look at this compound and report its log10 Ki: c1coc(-c2cc(-c3ccc4c(c3)OCO4)n[nH]2)n1 [APT-2]
RESULT: 2.13

QUERY: Please look at this compound and report its log10 Ki: Brc1cnc(-c2cc(-c3ccc4c(c3)OCO4)n[nH]2)s1 [APT-9]
RESULT: 2.27

QUERY: Please look at this compound and report its log10 Ki: CNc1ccc(/C=C/C(=O)c2nccs2)cc1 [APT-11]
RESULT: 3.00

QUERY: Please look at this compound and report its log10 Ki: CN(C)c1ccc(-c2cc(-c3nccs3)[nH]n2)cc1 [APT-5]
RESULT: 2.34

QUERY: Please look at this compound and report its log10 Ki: c1csc(-c2cc(-c3ccc4c(c3)OCO4)n[nH]2)n1 [APT-1]
RESULT: 2.16

QUERY: Please look at this compound and report its log10 Ki: CNc1ccc(/C=C/C(=O)c2nc(Br)cs2)cc1 [APT-12]
RESULT: 2.30

Record log10 Ki for all entries; do not skip any.
1. CNc1ccc(-c2cc(-c3nc(Br)cs3)[nH]n2)cc1 [APT-13]
2. FCCNc1ccc(-c2cc(-c3nccs3)[nH]n2)cc1 [APT-6]
3. Fc1csc(-c2cc(-c3ccc4c(c3)OCO4)n[nH]2)n1 [APT-10]

RESULT:
1.44
2.26
2.91

----------
assay: LogD determination (octanol/PBS); type: physicochemical; details: n = 3
VALUE TYPE: logD

QUERY: Please look at this compound and report its logD: [11CH3]Nc1ccc(-c2cc(-c3nc(Br)cs3)[nH]n2)cc1 [[^11C]APT-13]
RESULT: 3.16

----------
molecular target: synthetic human Aβ1–42 fibrils (Homo sapiens); construct: Synthetic lyophilized human Aβ1–42 peptide; assay: In vitro competition binding assay against [3H]MODAG-001 on Aβ1–42 fibrils; conditions: competition against 1 nM [3H]MODAG-001; Aβ1–42 fibrils 1 μM; mean Ki ± SEM
Sequence (P05067 672-713): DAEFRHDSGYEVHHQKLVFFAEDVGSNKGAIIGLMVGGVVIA
So basically, if Ki comes in under 600 nM it's label 1, and if it's 600 nM or more it's label 0.

Solved entries:
QUERY: Input c1csc(-c2cc(-c3ccc4c(c3)OCO4)n[nH]2)n1 ; condition: Ki strictly below 600 nM. Does it hold?
RESULT: label 1

QUERY: Input Brc1cnc(-c2cc(-c3ccc4c(c3)OCO4)n[nH]2)s1 ; condition: Ki strictly below 600 nM. Does it hold?
RESULT: label 1

QUERY: Input CNc1ccc(-c2cc(-c3nc(Br)cs3)[nH]n2)cc1 ; condition: Ki strictly below 600 nM. Does it hold?
RESULT: label 1

Next:
QUERY: Input CNc1ccc(-c2cc(-c3nccs3)[nH]n2)cc1 ; condition: Ki strictly below 600 nM. Does it hold?
RESULT: label 1

QUERY: Input CNc1ccc(/C=C/C(=O)c2nccs2)cc1 ; condition: Ki strictly below 600 nM. Does it hold?
RESULT: label 1

QUERY: Input Brc1csc(-c2cc(-c3ccc4c(c3)OCO4)n[nH]2)n1 ; condition: Ki strictly below 600 nM. Does it hold?
RESULT: label 0
